B1: TPR t1 (parent)
chain: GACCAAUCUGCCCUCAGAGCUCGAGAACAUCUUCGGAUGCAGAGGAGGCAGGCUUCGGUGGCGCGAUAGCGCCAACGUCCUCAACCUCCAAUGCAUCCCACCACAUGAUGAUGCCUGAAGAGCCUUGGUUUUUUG

- Variants of: B1
- Assay Notes: polymerase ribozyme fitness, log enrichment relative to wild type (log ratio); higher = more active; in vitro selection for triplet polymerase activity

Sequence Chain: GACCAAUCUGCCCUCAGAGCUCGAGAACAUCUUCGGAUGCAGAGGAGGCAGGCUUCGGUGGCGCGAUAGCGCCAACGUCCUCAACCUCCAAUACAUCCCACCACAUGAUGAUGCCUGAAGAGCCUUGGUUUUUUC [G93A G135C]
polymerase ribozyme fitness (log ratio): -1

Sequence Chain: GACCACUCUGCCCUCAGAGCUCGAGAACAUCUUCGGAUGCAGAGGAGGCAGGCUUCGGUGGCGCGAUAGCGCCAACGUCCUCAACCUCCAAUGCAUCCCACCACAUGAUGAUGCCUGAAGAGCCUUGGUUAUUUG [A6C U131A]
polymerase ribozyme fitness (log ratio): -0.317

Sequence Chain: GACCAUUCUGCCCUCAGAGCUCGAGAACAUCUUCGGAUGCAGAGGAGGCAGGCUUCGGUGGCGCGAUAGCGCCAACGUCCUCAACCUCCAAUGCAUCCCACCACAUGAUGAUGCUUGAAGAGCCUUGGUUUUUUG [A6U C115U]
polymerase ribozyme fitness (log ratio): -1.06

Sequence Chain: GACCAAUCUGCCAUCAGAGCUCGAGAACAUCUUCGGAUGCAGAGGAGGCAGGCUUCGGUGGCGCGAUAGGGCCAACGUCCUCAACCUCCAAUGCAUCUCACCACAUGAUGAUGCCUGAAAAGCCUUGGUUUUUUG [C13A C70G C98U G120A]
polymerase ribozyme fitness (log ratio): -2.39

Sequence Chain: GACCAAUCUGCCCUCAGAGCUCGAGAACAUCUUCGGGUGCAGACGAGGCAGGCUUCGGUGGCGCGAUAGCGGCAACGCCCUCAACCUCCAAUGCAUCCCACCACAUGAUGAUGCCUGAAGAGCCUUGGUUUUUUG [A37G G44C C72G U78C]
polymerase ribozyme fitness (log ratio): -1.05

Sequence Chain: GACCAAUCUGCCCUCAGAGCUCGAGAACAUCUUCGGAUGCCGAGGAGGCAGGCUUCGGUGGCGCGAUAGCGCCAACGUCCUCAACCUCCAAUGCAUCCCACCACAUGAUGAUGUCUGAAGAGCCUUGGUUUUUUG [A41C C114U]
polymerase ribozyme fitness (log ratio): -2.16

Sequence Chain: GACCAAUCUGCCCUCAGAGCUCGAGAACAUCCUCGGAUGCAGAGGAGGCAGGCUUCGGUCGCGCGAUAGCGCCACCGUGCUCAACCUCCAAUGCAUCCCACCACAUGAUGAUGCCUGAAGAGCCUUGGUUUUUUG [U32C G60C A75C C79G]
polymerase ribozyme fitness (log ratio): -1.89

Sequence Chain: GACCAAUCUGCCCUCAGAGCUCGAGAACAUCUUCGGAUGCAGAGGAGGCAGGCUUCGGUGGCGCGAUAGCGCCAACGUCCUCAACCUCCAAUGCAUCCCACCACAUGAUGAUGCCUCAAGGGCCUUGGUCUUUUG [G117C A121G U130C]
polymerase ribozyme fitness (log ratio): 0.325

Sequence Chain: GACCAAUCUGCCCUCAGAGCUCGAGAACAUCUUCGGAUGCAGAAGAGGCAGGCUUCGGUCGCGCGAUAGCGCCAACGUCCUCAACCUCCAAUGCAUCCCACCACAUGAUGAUGCCUGAAGAGCAUUGGUUUUUUG [G44A G60C C124A]
polymerase ribozyme fitness (log ratio): 0.703

Sequence Chain: GACCAAUCUGCCCUCAGAGCUCGAGAACAUCUUCGGAUGCAGAGGUGGCAGGCUUCGGUGGCGCGAUAGCGCCAACGUCCUCAACCUCCAAUGCAUCCCACCACAUGAUGAUGCCUGAAGAGCCUUUGUUUUUUG [A46U G127U]
polymerase ribozyme fitness (log ratio): -2.62

Sequence Chain: GACCAAUCUGCCCUCAGAGCUCGAGAACAUCUUCGGAUGCAGAGGAGGCAGGCUUCGGUUGCGCGAUAGCGCCAACGUCCUCAACCUCCAAUGCAUCCCACCACAUGAUGAUGCCUGAAAAGCCUUGGUUUUUUG [G60U G120A]
polymerase ribozyme fitness (log ratio): 1.38

Sequence Chain: GACCAAUCUGCCCUCAGAGCUCGAGAACAUCUUCGGAUGCAGAGGAGGCAGGCUUCGAUGGCGCGAUAGCGCCAACGUCCUCAACUUCCAAUGCAUCCCACCACAUGAUGAUGCCUGAAGAGCCUUGGUUUUUUG [G58A C86U]
polymerase ribozyme fitness (log ratio): -0.881

Sequence Chain: GACCAAUCUGCCCUCAGAGCUCGAGAACAUCUUCGGAUGCAGAGGAGGCAGGCUUCGGUGGCGCGAUAGCGACAACGUCCUCAACCUCCAAUGCAUCCCACCACAUGAUGAUGACUGAAGAACCUUGGUUUUUUG [C72A C114A G122A]
polymerase ribozyme fitness (log ratio): -2.11

Sequence Chain: GACUAAUCUGCUUUCAGAGCUCGAGAACAUCUUCGGAUGCAGAGGAGGCAGGCUUCGGUGGCGCGAUACCGCCAACGUCCUCAACCUCCAAUGCAUCCCACCACAUGAUGAUGCCUGAAGAGCGUUGGUUUUUUG [C4U C12U C13U G69C C124G]
polymerase ribozyme fitness (log ratio): -0.455

Sequence Chain: GACCAAACCGCCCUCAGAGCUCGAGAACAUCUUCGGAUGCAGAGCAGGCAGGCUUCGGUGGCGCGAUAGUGCCAACGUCCUCAACCUCAAAUGCAUCCCACCACAUGAUGAUGCCUGAAGAGACUUGGUUUUUUG [U7A U9C G45C C70U C89A C123A]
polymerase ribozyme fitness (log ratio): -2.15

Sequence Chain: GACCAAUCUGCCCUCAGAGCUCGAGAACAUCUUCGGAUGCAGAGGAGGCAUGCUUCGGUGGCGCGAUAGCGCCAACGUCCUCAACCUCCAAUGCAUCCCACCACAUGAUAAUGCCUGAAGAGCCUUGGUUUAUUG [G51U G110A U132A]
polymerase ribozyme fitness (log ratio): -5.7

Sequence Chain: GACCAAUCUGCCCUCAGAGCUCGAGAACCUCUUCGGAUGCAGAGGAGGUAGGCUUCGGUGGCGCGAUAGCGUCAACGUCCUCAACCUCCAAUGCAUCCCACCACAUGAUGAUGCCUGAAGAGCCUUGGUUUUUUG [A29C C49U C72U]
polymerase ribozyme fitness (log ratio): -4.03

Sequence Chain: GACCAAUCUGCCCUCAGAGCUCGAGAACAUCUUCGGAUGCAGAGGAGGCAGGCUUCGGUGGCCCGAUAGCGCCAACGCCCUCAACCUCCAAUGCAUCCCACCACCUGAUGAUGCCUGAAGAGCCUUGGUUUUUUG [G63C U78C A105C]
polymerase ribozyme fitness (log ratio): -3.52

Sequence Chain: GACCACUCUGCCCUCAGAGCUCGAGAACAUCUUCGGAUGCAGAGGAGGCAGGCUUCGGUGGCGCGAUAGUGCCAACGUCCUCAACCUCCAAUGCAUCCCACCACAUGAUGAUGCCUGAAGAGCCUUGGAUUUUUG [A6C C70U U129A]
polymerase ribozyme fitness (log ratio): -2.82

Sequence Chain: GACCAAUCUGCCCUCAGAGCUCGAGAACAUCUUCGGAUGCAGAGGAGGCAGGCUUCGGUGGCGCGAUAGCGCCAACGUCCUCAACCUGCAAUGCAUCCCACCACAUGAUGAUGCCUGAAACGCCUUGGUUUUUUU [C88G G120A A121C G135U]
polymerase ribozyme fitness (log ratio): -0.939

Sequence Chain: GACCAAUCUGCCCUCAGAGCUCGGGAACAUCUUCGGAUGCAGAGGAGGCAGGCUUCGGUGGCGCGAUAGCGCCAACGUCCUCAACCUUCAAUGCCUCCCACCACAUGAUGAUGCCUGAAGAGCAUUGGUUUUAUG [A24G C88U A95C C124A U133A]
polymerase ribozyme fitness (log ratio): -0.316

Sequence Chain: GACCAAUCUGCCCUCAGAGCUCCAGAACAUCUUCGGAUGCAGAGGAGGCAGGCUUCGGUGGCGCGAUAGGGCCAACGUCCUCAACCUCCAAUGCAUCCCACCACAUGAUGAUGCCUGAAGAGCCUUGGUUUUUUG [G23C C70G]
polymerase ribozyme fitness (log ratio): -7.47
